test system: Plasmodium falciparum; test: Antimalarial activity against Plasmodium falciparum Dd2 ring stage parasite assessed as decrease in parasite viability after 72 hrs by SYBR green 1 dye based assay; assay type: functional, organism-based; conditions: Plasmodium falciparum, Dd2, 72 h; read-out: IC50
pIC50: −log10 of the molar value.
Measured pIC50, listed per entry.
OBSERVATION TYPE: pIC50

GIVEN SMILES	TGT	REPORTED VALUE
COc1cc2c(C)cccc2ccc1=O	Plasmodium falciparum	< 4.70
COc1cc([C@@H]2Oc3c(OC)cc(/C=C/COC(=O)CC(C)C)cc3[C@H]2COC(=O)CC(C)C)ccc1O	Plasmodium falciparum	< 4.70
C=C[C@@](C)(OC(C)=O)[C@@H]1C[C@@H]2[C@@]3(C)[C@@H](O)CCC(C)(C)[C@@H]3CC[C@@]2(C)O1	Plasmodium falciparum	5.14
C=C[C@](C)(O)[C@@H]1C[C@@H]2[C@@]3(C)C(=O)CCC(C)(C)[C@@H]3CC[C@@]2(C)O1	Plasmodium falciparum	< 4.70
C[C@@H]1CC[C@H]2[C@@H](C)C(=O)O[C@@H]3O[C@@]4(C)CC[C@@H]1[C@]32OO4	Plasmodium falciparum	8.07
C=C[C@](C)(O)[C@@H]1C[C@@H]2[C@@]3(C)[C@@H](O)CCC(C)(C)[C@@H]3CC[C@@]2(C)O1	Plasmodium falciparum	< 4.70
